The measured values listed here are drawn from patent US20260125477A1.

Target: T1, recombinant human B7-H3 (4Ig) protein, with His tag (human, UniProt Q5ZPR3 29-461, limits assumed)
T1 construct: Bought protein; also called human B7-H3 (4Ig)/B7-H3b protein
T1 sequence (looked up): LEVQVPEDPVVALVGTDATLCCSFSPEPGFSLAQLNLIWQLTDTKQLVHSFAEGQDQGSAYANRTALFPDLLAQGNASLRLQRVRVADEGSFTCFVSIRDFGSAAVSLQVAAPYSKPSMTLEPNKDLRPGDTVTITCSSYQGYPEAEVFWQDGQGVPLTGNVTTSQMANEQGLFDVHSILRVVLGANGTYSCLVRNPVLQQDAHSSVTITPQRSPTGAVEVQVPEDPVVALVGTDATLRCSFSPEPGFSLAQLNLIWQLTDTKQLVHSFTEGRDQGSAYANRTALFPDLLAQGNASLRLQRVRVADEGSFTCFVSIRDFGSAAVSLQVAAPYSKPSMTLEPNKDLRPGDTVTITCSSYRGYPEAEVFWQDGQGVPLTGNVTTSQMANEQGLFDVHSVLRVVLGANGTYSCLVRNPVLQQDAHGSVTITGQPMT
Experiment: SPR (Biacore T200), antibody captured on Protein A chip, response at 200 nM antigen
This listing pairs binders with measured Response (RU).

{"Binder": "10D7 (antibody, human IgG1, kappa, V domains shown, also called 10D7-WT; Ab10D7) VH: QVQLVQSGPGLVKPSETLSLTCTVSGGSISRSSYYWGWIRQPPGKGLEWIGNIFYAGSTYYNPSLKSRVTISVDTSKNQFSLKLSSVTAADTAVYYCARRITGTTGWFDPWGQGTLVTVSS VL: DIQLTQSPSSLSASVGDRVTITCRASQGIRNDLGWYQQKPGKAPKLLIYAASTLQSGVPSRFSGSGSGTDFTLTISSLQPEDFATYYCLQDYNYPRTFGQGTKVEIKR", "Response (RU)": 41.9}
{"Binder": "10F5 (antibody, human IgG1, kappa, V domains shown, also called Ab10F5) VH: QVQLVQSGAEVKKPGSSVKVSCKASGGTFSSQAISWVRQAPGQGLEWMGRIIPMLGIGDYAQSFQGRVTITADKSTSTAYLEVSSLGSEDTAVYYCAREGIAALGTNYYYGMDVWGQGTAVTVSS VL: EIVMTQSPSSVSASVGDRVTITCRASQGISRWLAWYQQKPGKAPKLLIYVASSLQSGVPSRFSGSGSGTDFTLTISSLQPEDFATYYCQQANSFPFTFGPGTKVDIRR", "Response (RU)": 32.5}
{"Binder": "6B5 (antibody, human IgG1, kappa, V domains shown, also called 6B5-WT; Ab6B5) VH: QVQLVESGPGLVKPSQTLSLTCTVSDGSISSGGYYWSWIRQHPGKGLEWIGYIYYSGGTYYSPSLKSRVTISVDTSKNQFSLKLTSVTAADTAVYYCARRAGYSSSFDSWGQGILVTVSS VL: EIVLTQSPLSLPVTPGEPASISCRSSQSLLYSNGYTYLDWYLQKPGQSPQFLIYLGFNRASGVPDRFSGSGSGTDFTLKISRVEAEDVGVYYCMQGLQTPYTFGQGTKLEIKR", "Response (RU)": 34.8}
{"Binder": "Enoblituzumab (antibody, human IgG1, kappa, V domains shown, Humanized anti-B7-H3 antibody of MacroGenics with optimised Fc, used as the positive control; also called AbEno; enoblituzumab-IgG1-Mut) VH: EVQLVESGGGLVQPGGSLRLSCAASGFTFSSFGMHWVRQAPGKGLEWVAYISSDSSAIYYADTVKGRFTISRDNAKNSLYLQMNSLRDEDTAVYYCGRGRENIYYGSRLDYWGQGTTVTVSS VL: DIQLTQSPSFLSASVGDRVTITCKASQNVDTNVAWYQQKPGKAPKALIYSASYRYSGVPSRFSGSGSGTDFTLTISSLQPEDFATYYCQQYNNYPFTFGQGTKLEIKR", "Response (RU)": 25.7}
